molecular target: T1, FV-810^R709Q (human, UniProt P12259 29-838; P12259 1520-2224); assay: fluorescence anisotropy; buffer-pretreated protein titrated into 30 nM OG488-BR, 50 uM PCPS; n=1 assumed
T1 construct: range 1-810;range 1492-2196; mature numbering
T1 sequence (P12259 other isoform, or with tags, fused parts or gaps R709Q R709Q): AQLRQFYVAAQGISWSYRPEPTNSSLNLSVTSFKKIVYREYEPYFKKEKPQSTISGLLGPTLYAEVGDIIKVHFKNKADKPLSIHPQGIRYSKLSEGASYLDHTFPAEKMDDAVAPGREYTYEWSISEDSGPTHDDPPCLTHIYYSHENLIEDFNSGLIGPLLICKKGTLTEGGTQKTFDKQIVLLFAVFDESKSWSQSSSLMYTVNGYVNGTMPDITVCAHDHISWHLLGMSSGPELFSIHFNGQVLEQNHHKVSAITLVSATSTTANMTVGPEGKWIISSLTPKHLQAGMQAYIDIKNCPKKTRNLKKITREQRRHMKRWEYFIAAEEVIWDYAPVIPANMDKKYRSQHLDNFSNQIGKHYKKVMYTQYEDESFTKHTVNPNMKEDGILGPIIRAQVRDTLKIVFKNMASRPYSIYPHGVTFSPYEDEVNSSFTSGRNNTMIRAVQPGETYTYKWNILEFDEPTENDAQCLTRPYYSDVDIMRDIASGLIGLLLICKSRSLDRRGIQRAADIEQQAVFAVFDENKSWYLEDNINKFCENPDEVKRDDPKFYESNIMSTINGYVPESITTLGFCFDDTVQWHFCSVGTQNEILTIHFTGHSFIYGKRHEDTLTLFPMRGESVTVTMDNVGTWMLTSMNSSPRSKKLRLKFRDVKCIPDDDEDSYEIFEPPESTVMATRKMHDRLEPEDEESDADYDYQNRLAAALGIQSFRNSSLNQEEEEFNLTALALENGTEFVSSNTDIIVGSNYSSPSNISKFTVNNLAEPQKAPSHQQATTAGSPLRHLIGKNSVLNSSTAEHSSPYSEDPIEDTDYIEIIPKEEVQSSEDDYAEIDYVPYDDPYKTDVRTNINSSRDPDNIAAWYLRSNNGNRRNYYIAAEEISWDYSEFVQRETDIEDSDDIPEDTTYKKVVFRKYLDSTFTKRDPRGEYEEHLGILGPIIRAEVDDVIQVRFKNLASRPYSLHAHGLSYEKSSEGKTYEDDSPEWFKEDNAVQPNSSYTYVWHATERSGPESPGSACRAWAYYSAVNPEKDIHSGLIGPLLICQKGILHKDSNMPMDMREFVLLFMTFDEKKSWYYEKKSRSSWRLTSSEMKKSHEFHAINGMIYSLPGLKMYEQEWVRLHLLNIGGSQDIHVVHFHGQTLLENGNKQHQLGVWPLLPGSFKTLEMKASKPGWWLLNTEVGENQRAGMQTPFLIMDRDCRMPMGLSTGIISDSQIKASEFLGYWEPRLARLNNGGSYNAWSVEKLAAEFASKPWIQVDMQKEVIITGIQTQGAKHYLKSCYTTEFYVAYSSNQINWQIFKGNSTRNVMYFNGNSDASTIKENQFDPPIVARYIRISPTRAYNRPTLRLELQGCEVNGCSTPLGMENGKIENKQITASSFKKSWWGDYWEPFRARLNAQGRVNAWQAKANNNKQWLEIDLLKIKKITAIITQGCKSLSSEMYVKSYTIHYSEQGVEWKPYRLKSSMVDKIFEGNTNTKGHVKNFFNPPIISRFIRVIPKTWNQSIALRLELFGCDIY
Ends that are not written are not given here.
observable: pKd
In plain terms, pKd is the concentration in mol/L turned into minus its base-10 logarithm.

input: For the binder Oregon Green 488 maleimide-modified BR (OG488-BR) (also called fluorescently labeled FVBR) peptide: C(Oregon Green 488 maleimide)SRAWGESTPLANKPGKQSGHPKFPRVRHKSLQVRQDGGKSRLKKSQFLIKTRKKKKEK , give its reported pKd.
output: 8.15
